Biological target: T1, Human recombinant soluble TWEAK (human, UniProt O43508 99-249)
T1 sequence: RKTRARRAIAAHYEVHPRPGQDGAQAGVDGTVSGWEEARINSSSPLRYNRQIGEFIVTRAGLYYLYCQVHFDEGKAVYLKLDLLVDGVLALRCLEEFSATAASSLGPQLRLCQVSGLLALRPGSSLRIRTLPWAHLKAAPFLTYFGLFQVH
Experiment: cell-based or functional assay
result-type: IL-8 Secretion IC50 (µg/mL)
Unit µg/mL implied. Number only.

// query Give its IL-8 Secretion IC50 value. Item: TW-304chi (antibody, human IgG1, kappa, V domains shown, also called chimeric antibody 304) VH: QSLEESGGDLVKPGASLTLTCKASGFSFSSTYYMCWVRQAPGKGLEWIGCIYVGSSGAPYYASWAKGRFTISKTSSTTVALQMTSLTPADTATYVCTRSVHFGDLWGPGTLVTVSS VL: DVVMTQTPSPVSAAVGGTVTIKCQASQSIGNDLSWYQQKPGQRPKLLIYSVSTLASGVPSRFKGSGSGTEYSLTISDVQCADAATYYCQCIDYGNNYVGNTFGGGTEVVVKR
// result 0.122

// query // query: TW-301chi (antibody, human IgG1, kappa, V domains shown, also called chimeric antibody 301) VH: QSLEESGGGLVKPGASLTLTCTASGFTFNANYWICWVRQAPGKGLEWIACIYGGGNSGAYYASWATGRFTISRTSSTTVTLQMTSLTAADTATYFCARGPISRDLWGPGTLVTVSL VL: DVVMTQTPASVSEPVGGTVTIKCQASQSIYSSLAWYQQKPGQPPKLLIYDAFDLASGVSSRFTGSGSGTQFTLTISDLECADAATYYCQSTDYGNSWDGNPFGGGTEVVVTR
// result 0.121

// query Also TW-301 (antibody, V domains shown, also called Antibody 301; rabbit antibody 301) VH: QSLEESGGGLVKPGASLTLTCTASGFTFNANYWICWVRQAPGKGLEWIACIYGGGNSGAYYASWATGRFTISRTSSTTVTLQMTSLTAADTATYFCARGPISRDLWGPGTLVTVSL VL: DVVMTQTPASVSEPVGGTVTIKCQASQSIYSSLAWYQQKPGQPPKLLIYDAFDLASGVSSRFTGSGSGTQFTLTISDLECADAATYYCQSTDYGNSWDGNPFGGGTEVVVT , if possible.
// result 0.128
